Please respond with reported pEC50 for every item in the list.
target-system: T1, huNav157 chimera 14 + β1-β2-β3 (human)
T1 construct: Chimera of huNav1.7α (extracellular loops and transmembrane helices) and huNav1.5α (intracellular loops); also called Nav157ch14-β1-β2-β3; huNav157 chimera 14-beta1-beta2-beta3
protocol: binding FACS, HEK FlpIn cells
Here pEC50 is given on a logarithmic scale as minus log10 of the concentration in mol/L.

// query Tell me its pEC50 given F010301850 (VHH, also called F0103387G05(L11V, A14P, D23A, H37Y, G40A, A41P, D58G, N82bS, N83R, V89L, R105Q)) VHH: EVQLVESGGGVVQPGGSLRLSCAASGRILRIGYMRWYRQAPGKQREFVARITDDSATGYADSVKGRFTISRDNAKNTVYLQMNSLRPEDTALYYCEALVTASVRGGSIHSGTYWGQGTLVTVSS as the entry.
// result 8.52

// query State its pEC50 for this binder: F010301644 (VHH, also called F0103387G05(L11V, A14P, H37Y, N82bS, N83R, V89L, R105Q)) VHH: EVQLVESGGGVVQPGGSLRLSCDASGRILRIGYMRWYRQGAGKQREFVARITDDSATDYADSVKGRFTISRDNAKNTVYLQMNSLRPEDTALYYCEALVTASVRGGSIHSGTYWGQGTLVTVSS
// result 8.31

// query Answer with the recorded pEC50 of F010301647 (VHH, also called F0103387G05(L11V, A14P, F47L, N82bS, N83R, V89L, R105Q); F47L) VHH: EVQLVESGGGVVQPGGSLRLSCDASGRILRIGYMRWHRQGAGKQRELVARITDDSATDYADSVKGRFTISRDNAKNTVYLQMNSLRPEDTALYYCEALVTASVRGGSIHSGTYWGQGTLVTVSS only.
// result 8.33

// query Give recorded pEC50. F010301649 (VHH, also called F0103387G05(L11V, A14P, N82bS, N83R, V89L, R105Q)) VHH: EVQLVESGGGVVQPGGSLRLSCDASGRILRIGYMRWHRQGAGKQREFVARITDDSATDYADSVKGRFTISRDNAKNTVYLQMNSLRPEDTALYYCEALVTASVRGGSIHSGTYWGQGTLVTVSS
// result 8.38
